Origin of values: ChEMBL document CHEMBL5154650

experiment: Antiproliferative activity against human KB/VCR cells measured after 72 hrs by SRB assay; format: functional, cell-based
property.measured: pIC50
Recall that pIC50 is obtained by taking minus log10 of the concentration measured in molar.

Past entries and their recorded results:
sample.smiles: COc1cc(OC)cc(-c2ccc(C(=O)c3ccccc3)cc2)c1
numeric.value: 7.37

sample.smiles: COc1cc2c(c(OC)c1OC)-c1ccc(OC)c(=O)cc1[C@@H](NC(C)=O)CC2
numeric.value: 6.53

sample.smiles: COc1cc(C#N)cc(-c2ccc(C(=O)c3ccccc3)c(N)c2)c1.Cl
numeric.value: 8.21

Query (molecule): `COc1cc(C#N)cc(-c2ccc(C(=O)c3ccccc3)cc2)c1` ; field requested: pIC50 7.52

Follow-up entry: `CC[C@]1(O)C[C@H]2CN(CCc3c([nH]c4ccccc34)[C@@](C(=O)OC)(c3cc4c(cc3OC)N(C=O)[C@H]3[C@@](O)(C(=O)OC)[C@H](OC(C)=O)[C@]5(CC)C=CCN6CC[C@]43[C@@H]65)C2)C1` 5.70

###

system: A549; experiment: Antiproliferative activity against human A549 cells measured after 72 hrs by SRB assay; format: functional, cell-based; conditions: a549
property.measured: pIC50
Recall that pIC50 is obtained by taking minus log10 of the concentration measured in molar.

Observed pIC50 on A549 for `COc1cc(C#N)cc(-c2ccc(C(=O)c3ccccc3)c(N)c2)c1` , please. 8.22

###

system: RAW264.7; assay: Antiproliferative activity against mouse RAW264.7 cells measured after 72 hrs by SRB assay; type: functional, cell-based; details: RAW264.7, 72 h
property.measured: pIC50
Recall that pIC50 is obtained by taking minus log10 of the concentration measured in molar.

Observed pIC50 on RAW264.7 for `COc1cc(C#N)cc(-c2ccc(C(=O)c3ccccc3)c(N)c2)c1.Cl` , please. 8.12

###

test: Antiproliferative activity against human MRC9 cells measured after 72 hrs by SRB assay; format: functional, cell-based; conditions: MRC9, 72 h
property.measured: IC50

Query (compound): `COc1cc(C#N)cc(-c2ccc(C(=O)c3ccccc3)c(N)c2)c1.Cl` ; field requested: IC50 166 nM

###

system: K562; assay: Antiproliferative activity against human K562 cells measured after 72 hrs by SRB assay; assay type: functional, cell-based; settings: K562, 72 h
property.measured: IC50 (nM)
The response must be a number in nM with no trailing unit.

compound: COc1cc2c(c(OC)c1OC)-c1ccc(OC)c(=O)cc1[C@@H](NC(C)=O)CC2
units.label: nM
IC50: 102

compound: COc1cc(OC)cc(-c2ccc(C(=O)c3ccccc3)cc2)c1
units.label: nM
IC50: 137

compound: COc1cccc2c1C(=O)c1c(O)c3c(c(O)c1C2=O)C[C@@](O)(C(=O)CO)C[C@@H]3O[C@H]1C[C@H](N)[C@H](O)[C@H](C)O1.Cl [DOXORUBICIN HYDROCHLORIDE]
units.label: nM
IC50: 108

compound: COc1cc(C#N)cc(-c2ccc(C(=O)c3ccccc3)cc2)c1
units.label: nM
IC50: 144

Shifting focus to the compound that follows.
Query (compound): `COc1cc(C#N)cc(-c2ccc(C(=O)c3ccccc3)c(N)c2)c1.Cl` ; field requested: IC50 7.8
